The values you see were collected from PubChem BioAssay (NCI).

System: SR leukemia
assay-method-text: NCI-60 one-dose screen, 48 h (100 = growth as untreated, 0 = no growth, -100 = all killed)
run-conditions: 10 µM
Compounds without any hit were thinned out: in the full panel of roughly 83,000, 20% have a hit.
Parameter threshold = 60%. Response is Yes when growth meets or exceeds it, else No.

{"columns": ["molecule", "answer-label"],
 "data": [
  ["CC1([N+](=O)[O-])COP(=O)(Nc2ccc(F)cc2)OC1 (stereo unspecified)", "Yes"],
  ["O=[N+]([O-])c1ccc(F)c([N+](=O)[O-])c1F", "No"],
  ["O=C1NC(=S)NC(=O)C1=Cc1ccccc1", "Yes"],
  ["[Br][Pb]([c]1ccccc1)([c]1ccccc1)[c]1ccccc1", "No"],
  ["O=CN1N=C(c2ccc3c(c2)OCO3)CC1c1sc(N(CCCl)CCCl)nc1Cl (stereo unspecified)", "Yes"],
  ["CC(N)Cc1ccc(O)cc1 (stereo unspecified)", "No"],
  ["CC(C)(C)[Si](C)(C)OC1[C@@H](O[Si](C)(C)C(C)(C)C)[C@@H](CNC(=O)NC(=O)CF)O[C@H]1n1cnc2c(NC(=O)Nc3ccccc3)ncnc21 (stereo partly specified)", "No"],
  ["O=C(O)C1(Br)CC12c1ccccc1-c1ccccc12 (stereo unspecified)", "Yes"],
  ["CCOC(=O)c1cnc(SCc2ccc(Cl)c(Cl)c2)nc1N1CC1", "No"],
  ["COC(=O)C1CC2c3ccccc3C1c1ccccc12 (stereo unspecified)", "Yes"],
  ["NC(=O)OCC(CO)(c1ccccc1)c1ccccc1", "Yes"]
]}
